Below: a set of entries, each annotated with reported self-cleavage.
B1: LINE1-mini (parent)
chain: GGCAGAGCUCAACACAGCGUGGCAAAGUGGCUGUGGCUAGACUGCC

variants of: B1; assay: self-cleavage, relative activity (ratio to wild type); higher = more cleavage; in vitro, sequencing; the parent is a self-cleaving ribozyme
Keep the answer to the number alone.

# variant.key, attribute.measured, result
rows = [
    ("A25C G29A", "self-cleavage", 0.75),
]

The variant G29U U43G showed self-cleavage equal to 0

The variant G1C A4U showed self-cleavage equal to 0.06

The variant C13G G29C showed self-cleavage equal to 0.11

The variant G27A G35A showed self-cleavage equal to 0.19

The variant G2U A4U showed self-cleavage equal to 0.08

The variant G2C G19C showed self-cleavage equal to 0.16

The variant A12C G44C showed self-cleavage equal to 0.05

The variant C15A G21A showed self-cleavage equal to 0.16

The variant C8A A41G showed self-cleavage equal to 0.29

The variant G29U U43A showed self-cleavage equal to 0.2

The variant G30C G33A showed self-cleavage equal to 0.06

The variant G7A G27U showed self-cleavage equal to 0.16

Values compiled from the RNAGym collection of RNA variant scans (doi:10.7554/elife.90254).
